Please respond with reported pIC50 for every item in the list.
# Test system: HeLa
# Procedure summary: Cytotoxicity against Homo sapiens (human) HeLa cells assessed as metabolic active cells after 24 hr by MTT assay
# Type: functional, cell-based
Numbers only, as −log10 of the molar value.

Measured pIC50, `COC(=O)[C@H](CC(C)C)N1Cc2ccccc2C1` : 2.59

Measured pIC50, `O=C(O)CN1Cc2ccccc2C1` : 2.06

Measured pIC50, `COC(=O)CN1Cc2ccccc2C1` : 2.08

Measured pIC50, `O=C(O)[C@H](c1ccccc1)N1Cc2ccccc2C1` : 2.02

Batch request: pIC50 for each of the following compounds.
1. COC(=O)[C@H](Cc1c[nH]c2ccccc12)N1Cc2ccccc2C1
2. COC(=O)[C@H](c1ccccc1)N1Cc2ccccc2C1
3. CC(C)C[C@@H](C(=O)O)N1Cc2ccccc2C1
4. O=C(O)[C@H](Cc1c[nH]c2ccccc12)N1Cc2ccccc2C1

Completion:
2.01
2.08
2.34
2.12
